Measured values drawn from ChEMBL document CHEMBL1143194 for this set.

experimental-system: Melanocortin receptor 4 (Mus musculus)
Sequence (P56450 whole entry): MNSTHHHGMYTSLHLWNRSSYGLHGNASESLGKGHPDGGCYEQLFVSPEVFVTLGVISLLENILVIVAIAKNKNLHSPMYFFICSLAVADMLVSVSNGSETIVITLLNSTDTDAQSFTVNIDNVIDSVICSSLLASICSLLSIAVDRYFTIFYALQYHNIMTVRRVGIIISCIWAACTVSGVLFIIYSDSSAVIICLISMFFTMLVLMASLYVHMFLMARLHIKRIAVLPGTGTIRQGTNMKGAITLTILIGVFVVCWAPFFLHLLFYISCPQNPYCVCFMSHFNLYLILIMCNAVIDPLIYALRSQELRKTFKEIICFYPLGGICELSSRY
assay-protocol: Agonist activity at mouse MC4R expressed in HEK293 cells assessed as forskolin-stimulated response by beta-galactosidase reporter gene assay
measured-endpoint: EC50

Below, 5 compounds whose answers are already recorded.
{"compound": "Cc1cccc2c1N(Cc1ccccc1)C(=O)C(Cc1cn(Cc3ccccc3)c3ccccc13)NC2=O (centres undefined)", "measured-endpoint": "EC50", "experimental-value": "> 100 µM"}
{"compound": "O=C1NC(Cc2c[nH]c3ccccc23)C(=O)N(Cc2ccccc2)c2ccccc21 (centres undefined)", "measured-endpoint": "EC50", "experimental-value": "> 100 µM"}
{"compound": "NCCCCC1NC(=O)c2ccc(Cl)cc2N(Cc2ccccc2)C1=O (centres undefined)", "measured-endpoint": "EC50", "experimental-value": "0.24 µM"}
{"compound": "CCCN1C(=O)C(Cc2ccccc2)NC(=O)c2ccccc21 (centres undefined)", "measured-endpoint": "EC50", "experimental-value": "35 µM"}
{"compound": "O=C1NC(Cc2c[nH]c3ccccc23)C(=O)N(Cc2ccc3ccccc3c2)c2cc(Cl)ccc21 (centres undefined)", "measured-endpoint": "EC50", "experimental-value": "> 100 µM"}

Kindly note the recorded EC50 for NC(N)=NCCCC1NC(=O)c2ccccc2N(Cc2ccccc2)C1=O (centres undefined) , which is > 100 µM

Kindly note the recorded EC50 for O=C1NC(Cc2ccccc2)C(=O)N(Cc2ccccc2)c2ccccc21 (centres undefined) , which is > 100 µM

Kindly note the recorded EC50 for CCCCN1C(=O)C(Cc2ccccc2)NC(=O)c2ccccc21 (centres undefined) , which is > 100 µM

Kindly note the recorded EC50 for O=C1NC(Cc2ccccc2)C(=O)N(Cc2ccccc2-c2ccccc2)c2ccccc21 (centres undefined) , which is 1.97 µM
